# experimental_details: qHTS for differential inhibitors of proliferation of Plasmodium falciparum line GB4 (AID 1816);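 note: parasite growth measured after 72 h incubation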
# run_parameters: Plasmodium falciparum GB4 proliferation inhibition; series mostly up to 28.7 µM
Results filed as inconclusive are left out. The source made the active and inactive calls. Calls come from the whole dose curve; as a rule, active = well fitted curve in the direction sought with a large enough effect; inconclusive = small, poorly fitted or top-dose-only effect, or another doubt; inactive = no such curve, though single readings can be large or run the other way.
Use one of these outcomes when replying: true (active), false (inactive)

Prompt: Could you please tell me the result logged for CNC[C@H](O)c1cccc(O)c1 in this assay?
Completion: false

Prompt: Tell me the recorded outcome of this test for CC(=O)Oc1ccccc1C(=O)O .
Completion: false

Prompt: Hello, I am checking results. What call was entered for Cc1cn[nH]c1 ?
Completion: false

Prompt: Which result was noted for this compound in the test: NC[C@H](O)c1ccc(O)c(O)c1
Completion: false

Prompt: Record lookup: outcome of this test for CCCCNc1cc(C(=O)O)cc(S(N)(=O)=O)c1Oc1ccccc1 ?
Completion: false

Prompt: I would be grateful if you could indicate the recorded call for CCN(CC)CCCC(C)Nc1ccnc2cc(Cl)ccc12 (stereo unspecified) .
Completion: true

====

# experimental_details: qHTS profiling of the MIPE4 collection as inhibitors of Plasmodium falciparum (HB3) proliferation (AID 743347);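 note: plate controls were DMSO vehicle wells for no effect and artemisinin wells for full effect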
# run_parameters: P. falciparum HB3 in erythrocytes, SYBR Green DNA, 72 h; at 28.5 µM (top of the series) unless noted
measured_endpoint: growth, % of control (%)
Express the result in % but write the number alone.

Prompt: Recorded growth, % of control for CC(C)(C)OC(=O)CN(Cc1ccc(Cl)cc1)Cc1ccc([N+](=O)[O-])s1 , please?
Completion: 51.3

Prompt: If you can, please state the reported growth, % of control value of Cc1ccc(NC(=O)c2cccc(C(C)(C)C#N)c2)cc1Nc1ccc2ncn(C)c(=O)c2c1 .
Completion: 16.2

Prompt: Please give the measured growth, % of control for this compound: NC(=O)c1ccc(-c2nc(-c3ccc4c(c3)OCCO4)c(-c3ccccn3)[nH]2)cc1
Completion: 12.9

Prompt: Fill in: growth, % of control of NCCCC(N)(C(=O)O)C(F)F (stereo not drawn) is ___
Completion: 107

Prompt: What measured growth, % of control goes with CNC[C@H](O)c1cccc(O)c1 ?
Completion: 92.6

Prompt: Tell me the measured growth, % of control of O=C(c1cc(Cc2n[nH]c(=O)c3ccccc23)ccc1F)N1CCN(C(=O)C2CC2)CC1 , please.
Completion: 35.9

Prompt: Sample Cc1cc(-c2ccc(CC(=O)Nc3ccc(-c4cccnc4)cc3)cc2)ccn1 — what was its growth, % of control?
Completion: 63.6

Prompt: Fill in: growth, % of control of OC[C@H](Cc1ccccc1)Nc1nc(Oc2ccc3c(c2)CCC3)nc2c1ncn2Cc1ccc(-c2ccccc2)cc1 is ___
Completion: 68.3

Prompt: State the recorded growth, % of control for this entry: CC(C)(N)C(=O)N[C@H](COCc1ccccc1)C(=O)N1CCC2(CC1)CN(S(C)(=O)=O)c1ccccc12
Completion: 26.2

Prompt: Look up growth, % of control: CC(=O)NC(C)c1ccc(Oc2ccc(OC(C)C)cc2)cc1 (stereo not drawn)
Completion: 20.1

Prompt: Fill blank: measured growth, % of control of the compound COc1ccc(-c2ccc3c(N4CCOC[C@H]4C)nc(N4CCOC[C@H]4C)nc3n2)cc1CO is ____.
Completion: 7.68

Prompt: So what does the record say about growth, % of control for Fc1ccc(Cl)cc1-c1nc(Nc2ccncc2)c2nccnc2n1 ?
Completion: 8.98

Prompt: Quick one: growth, % of control for Cc1cccc(-c2[nH]c(C(C)(C)C)nc2-c2ccc3nccnc3c2)n1 ?
Completion: 6.8

Prompt: Look up growth, % of control: Cc1[nH]c(=O)c(C#N)cc1-c1ccc2nccn2c1
Completion: 68.7

Prompt: Query: growth, % of control; subject: NC(=O)C1CCCc2c1[nH]c1ccc(Cl)cc21 (stereo not drawn)
Completion: 106

Prompt: What value of measured growth, % of control is listed for Cn1cc(-c2ccc3nnc(C(F)(F)c4ccc5ncccc5c4)n3n2)cn1 ?
Completion: 35.2

Prompt: Recorded growth, % of control of COc1ccc(-c2oc3cc(OC)ccc3c2C(=O)c2ccc(C#N)cc2)cc1 , please.
Completion: 16.7

Prompt: growth, % of control lookup needed for Cc1n[nH]c(C)c1Cc1sc2c(c1C(=O)N1C[C@H](O)CO1)c(=O)n(C)c(=O)n2CC(C)C , thanks.
Completion: 145

Prompt: Quick check: growth, % of control of CNC(=O)c1ccc(C)c(-n2c(C)cc(OCc3ccc(F)cc3F)c(Br)c2=O)c1 ?
Completion: 93.8

Prompt: Dear colleague, I am looking for the recorded growth, % of control of the following compound: CCc1cncnc1N1CCN(Cc2nc3ccc(C(F)(F)F)cc3[nH]2)CC1
Completion: 15.6

Prompt: Quick one: growth, % of control of Nc1nccc(-c2ccc3noc(-c4ccc(Cl)cc4)c3c2)n1 ?
Completion: 33.5

Prompt: I am curious: what growth, % of control value has been reported for CCn1c(-c2nonc2N)nc2cnc(Oc3cccc(NC(=O)c4ccc(OCCN5CCOCC5)cc4)c3)cc21 ?
Completion: 3.64

Prompt: For CC(c1cc2ccccc2s1)N(O)C(N)=O (stereo not drawn) , what is its reported growth, % of control?
Completion: 101

Prompt: I'd like to know its growth, % of control. The compound in question is Cc1cc(C=c2sc3nc4ccccc4n3c2=O)c(C)n1-c1ccccc1
Completion: 424

Prompt: # input compound: Nc1cccc(S(=O)(=O)N2CCCN(S(=O)(=O)c3ccc4c(c3)OCCO4)CC2)c1 ; wanted: its growth, % of control
Completion: 586

Prompt: What does the data say about its growth, % of control? Entry: O=c1ncn2nc(Sc3ccc(F)cc3F)ccc2c1-c1c(Cl)cccc1Cl
Completion: 13.6

Prompt: May I ask what growth, % of control has been recorded for CN(C(=O)c1ccc(F)cc1C(F)(F)F)C1CCN(c2nnc(-c3ccnn3C)c3ccccc23)CC1 ?
Completion: 21.1

Prompt: Would you mind telling me what growth, % of control value was observed for Cc1ccnc(NS(=O)(=O)c2ccc(NC(=O)Nc3ccc(S(=O)(=O)Nc4nccc(C)n4)cc3)cc2)n1 ?
Completion: 9.87

Prompt: Param item = COc1cc2c(cc1OC)CN(CCc1ccc(NC(=O)c3cccc4c(=O)c5cccc(OC)c5[nH]c34)cc1)CC2 ; retrieve measured growth, % of control.
Completion: 4.23

Prompt: Given the entry CCCS(=O)(=O)Nc1ccc(F)c(C(=O)c2c[nH]c3ncc(-c4ccc(Cl)cc4)cc23)c1F , report its measured growth, % of control.
Completion: 15.2

Prompt: Please report the recorded growth, % of control for CCC(C)(C)C(=O)O[C@H]1C[C@@H](C)C=C2C=C[C@H](C)[C@H](CC[C@@H]3C[C@@H](O)CC(=O)O3)[C@H]21 .
Completion: 3.36

Prompt: Look at this compound and give its reported growth, % of control. CCOc1cc(C(=O)Nc2ccc(Cl)c(-c3nc4ccccc4[nH]3)c2)cc(OCC)c1OCC
Completion: 7.25

====

# experimental_details: qHTS assay for small molecule antagonists of retinoid X receptor alpha signaling (AID 588546);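 note: cells stimulated with 9-cis-retinoic acid as agonist; % is set by controls: 0 for no effect and ±100 for the full control effect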
# run_parameters: HEK293T RXRa-UAS-bla, beta-lactamase ratio, antagonist mode; measured here: W530 green channel, cytotoxicity proxy
# Excerpt: NIH Chemical Genomics Center [NCGC] U.S. Environmental Protection Agency [EPA] National Institutes of Environmental Health Sciences [NIEHS] National Toxicology Program [NTP] NCGC Assay Overview The Retinoid X receptor (RXR), a nuclear hormone receptor is expressed in liver, spleen, placenta, epidermis, central nervous system. […]
Results filed as inconclusive are left out.
measured_endpoint: max response (%)
Write it as a number; the unit % goes unstated.

Prompt: Entry under review: NC[C@H](O)c1ccc(O)c(O)c1 . Reported max response?
Completion: -24.3

Prompt: Value lookup for max response; key = Cc1[nH]c(=O)c(C#N)cc1-c1ccncc1
Completion: -2.65

Prompt: What value of measured max response is listed for CNC[C@H](O)c1cccc(O)c1 ?
Completion: 2.07

Prompt: Would you kindly share the measured max response for NC(N)=NC(=O)c1nc(Cl)c(N)nc1N ?
Completion: -9.32

====

# experimental_details: Quantitative High-Throughput drug screen in 47 multiple myeloma cell lines against the NCATS MIPE library collection: VP6_DJ cell viability assay (AID 1919867); note: nearly all actives have a fitted effect of over 40% in size
# run_parameters: ATP luminescence, 48 h; series mostly up to 45.8 µM
Inconclusive results are not listed. Active and inactive are the calls of the source. Calls come from the whole dose curve; as a rule, active = well fitted cell-killing curve with a large enough effect; inconclusive = small, poorly fitted or top-dose-only effect, or effect the other way; inactive = no such curve, though single readings can be large or run the other way.
Write down one outcome, taken from active, inactive

Prompt: Fill in: this test's call for CCc1cc(Nc2nccc(-c3c(-c4ccc(OC)c(C(=O)Nc5c(F)cccc5F)c4)nc4ccccn34)n2)c(OC)cc1N1CCC(N2CCN(S(C)(=O)=O)CC2)CC1 is ___
Completion: active

Prompt: Record lookup: outcome of this test for NC(=O)C1CCCc2c1[nH]c1ccc(Cl)cc21 (stereo not given) ?
Completion: active

Prompt: Per the assay record, what outcome was assigned to CCOc1ccc(Cc2cc([C@@H]3O[C@H](CO)[C@@H](O)[C@H](O)[C@@H]3O)ccc2Cl)cc1 ?
Completion: active

Prompt: Look up the recorded call for CCCc1nc2c(C)cc(-c3nc4ccccc4n3C)cc2n1Cc1ccc(-c2ccccc2C(=O)O)cc1 in this test.
Completion: active

Prompt: Hello, I am checking results. What call was entered for Nc1cccc(S(=O)(=O)N2CCCN(S(=O)(=O)c3ccc4c(c3)OCCO4)CC2)c1 ?
Completion: active

Prompt: Dear all, I need the recorded test outcome for CO[C@@H]1[C@H](N(C)C(=O)c2ccccc2)C[C@H]2O[C@]1(C)n1c3ccccc3c3c4c(c5c6ccccc6n2c5c31)C(=O)NC4 , thank you.
Completion: active

Prompt: I'd appreciate the recorded outcome for Cc1ccc(N(CC2=NCCN2)c2cccc(O)c2)cc1 from this test.
Completion: inactive

Prompt: Record request — test call for O=C(O)COCCN1CCN(C(c2ccccc2)c2ccc(Cl)cc2)CC1 (stereo not given)
Completion: inactive

Prompt: Hi team, can someone confirm the assay call for CC(C)(Sc1ccc(CCN(CCCCC2CCCCC2)C(=O)NC2CCCCC2)cc1)C(=O)O ?
Completion: inactive

Prompt: Please state the recorded outcome for this compound: CN(C(=O)c1ccc(F)cc1C(F)(F)F)C1CCN(c2nnc(-c3ccnn3C)c3ccccc23)CC1
Completion: active

Prompt: Identify the outcome logged in this assay for the compound shown: O=C1CCCC2=C1C(c1[nH]ncc1Cl)N=C(Nc1nc3ccccc3o1)N2 (stereo not given)
Completion: active

Prompt: For this compound, state the assay outcome: COc1ccc2c3n(c(=NC(=O)c4cccnc4)nc2c1OC)CCN3
Completion: active

Prompt: Can you look up the reported call for S=C(NCc1ccc2c(c1)OCO2)N1CCN(c2ncnc3c2oc2ccccc23)CC1 for me?
Completion: active

Prompt: Per the assay record, what outcome was assigned to Cc1cc(C=c2sc3nc4ccccc4n3c2=O)c(C)n1-c1ccccc1 ?
Completion: inactive

Prompt: How was OC[C@H](Cc1ccccc1)Nc1nc(Oc2ccc3c(c2)CCC3)nc2c1ncn2Cc1ccc(-c2ccccc2)cc1 classified in this test?
Completion: inactive

Prompt: Fill in: this test's call for CCC(C)(C)C(=O)O[C@H]1C[C@@H](C)C=C2C=C[C@H](C)[C@H](CC[C@@H]3C[C@@H](O)CC(=O)O3)[C@H]21 is ___
Completion: active

Prompt: // param item: Cc1cc(Nc2nc(N[C@@H](C)c3ncc(F)cn3)ncc2Cl)n[nH]1 ; yields the recorded call
Completion: active

Prompt: What is the recorded call for this compound in the test? c1ccc(-c2nn3c(c2-c2ccnc4cc(OCCN5CCOCC5)ccc24)CCC3)nc1
Completion: active

Prompt: I would be grateful if you could indicate the recorded call for COc1ccccc1[C@H](c1cccc2ccccc12)[C@@](C)(C#N)C(=O)N1CCC(c2cccc(C(F)(F)F)c2)CC1 .
Completion: active

Prompt: Recorded call for O=C(O)CCc1ccc(NCc2cccc(Oc3ccccc3)c2)cc1 ?
Completion: inactive

Prompt: Hi team, can someone confirm the assay call for Cc1ccccc1C(C(=O)NC1CCCC1)N(C(=O)Cn1cnc2ccccc21)c1cccc(F)c1 (stereo not given) ?
Completion: active

Prompt: // outcome(item) with item = Cc1ccnc(NS(=O)(=O)c2ccc(NC(=O)Nc3ccc(S(=O)(=O)Nc4nccc(C)n4)cc3)cc2)n1
Completion: active

Prompt: Called result for Cc1ccc(-n2nc(C(C)(C)C)cc2NC(=O)Nc2ccc(OCCN3CCOCC3)c3ccccc23)cc1
Completion: active

Prompt: Name the outcome recorded for N[C@@H]1CONC1=O in the assay.
Completion: active

Prompt: Field: outcome | Entry: Cn1cnc([N+](=O)[O-])c1Sc1ncnc2nc[nH]c12
Completion: active

Prompt: Short answer needed: outcome of this test for NC[C@H](O)c1ccc(O)c(O)c1 ?
Completion: active

Prompt: What is the recorded call for this compound in the test? CNC(=O)c1ccc(C)c(-n2c(C)cc(OCc3ccc(F)cc3F)c(Br)c2=O)c1
Completion: active

Prompt: Hi, sorry to bother you, what did the test record for COc1ccc(-c2c(-c3ccc(O)cc3O)n[nH]c2C)cc1 ?
Completion: active

Prompt: Answer briefly: the call reported for Cc1cc(-c2ccc(CC(=O)Nc3ccc(-c4cccnc4)cc3)cc2)ccn1 in this assay.
Completion: active

Prompt: Could you kindly confirm the outcome this assay logged for Cc1ccccc1C(OCCN(C)C)c1ccccc1 (stereo not given) ?
Completion: inactive

Prompt: # lookup: test call for CS(=O)(=O)Oc1ccc2c(NC(N)=O)c(C(=O)c3ccc(Cl)cc3Cl)oc2c1
Completion: active

Prompt: What call does the record list for NS(=O)(=O)c1cc2c(cc1Cl)NC=NS2(=O)=O ?
Completion: inactive

Prompt: Dear colleague, could you share the recorded outcome for COc1ccc2nc(S(=O)Cc3ncc(C)c(OC)c3C)[nH]c2c1 (stereo not given) when you have a moment?
Completion: active

Prompt: Look up the recorded call for Cc1cccc(-c2[nH]c(C(C)(C)C)nc2-c2ccc3nccnc3c2)n1 in this test.
Completion: active

Prompt: Record lookup: outcome of this test for NCCc1ccc(O)c(O)c1 ?
Completion: active

Prompt: Please share the test call associated with O=NN(CCCl)C(=O)NCCCl .
Completion: inactive

Prompt: Check the results log: what was the call for Cc1cc2c(C(C)C)c(O)c(O)c(C=O)c2c(O)c1-c1c(C)cc2c(C(C)C)c(O)c(O)c(C=O)c2c1O ?
Completion: active

Prompt: I would be grateful if you could indicate the recorded call for O=C(C=Cc1ccc(/C=C/C(=O)Nc2ccc(C3=NCCN3)cc2)cc1)Nc1ccc(C2=NCCN2)cc1 .
Completion: inactive

Prompt: Per the records of this test, what outcome belongs to OC(CCN1CCCCC1)(c1ccccc1)C1CC2C=CC1C2 (stereo not given) ?
Completion: inactive

Prompt: Give the logged outcome of this assay for the following compound: COc1ccc(COc2cc3oc(=O)c4cc(C(C)O)ccc4c3cc2OC)cc1 (stereo not given)
Completion: active
